- Subject of test: T1, human TREM2 (human, UniProt Q9NZC2 19-174, limits assumed)
- T1 sequence: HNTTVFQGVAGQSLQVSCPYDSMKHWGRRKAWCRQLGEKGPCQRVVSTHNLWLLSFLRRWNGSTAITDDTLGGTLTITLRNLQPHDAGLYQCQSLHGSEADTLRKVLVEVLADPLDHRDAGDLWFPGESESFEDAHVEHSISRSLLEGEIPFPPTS
- Method notes: yeast-displayed Fab FACS, 1st screen 110 nM
Simple rule here: binding signal fold over 6E7 parental less than 0.4 fold is class 1, otherwise class 0.

Please review the entries below; each comes with its answer.
V54 (Fab, V domains shown) VH: EVQLVQSGAEVKKPGESLKISCKGSGYSFTSQWIAWVRQMPGKGLEWMGIIYPGDSDTRYSPSFQGQVTISADKSISTAYLQWSSLKASDTAMYFCARQRTFYYDSSDYFDYWGQGTLVTVSS VL: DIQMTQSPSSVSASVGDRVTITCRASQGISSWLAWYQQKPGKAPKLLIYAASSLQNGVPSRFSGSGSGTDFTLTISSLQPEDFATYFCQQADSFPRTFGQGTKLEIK
class 0
V93 (Fab, V domains shown) VH: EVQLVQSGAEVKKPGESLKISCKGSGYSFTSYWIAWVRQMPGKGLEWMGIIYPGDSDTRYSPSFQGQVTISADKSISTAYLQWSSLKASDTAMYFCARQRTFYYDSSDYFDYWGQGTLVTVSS VL: DIQMTQSPSSVSASVGDRVTITCRASQGISGWLAWYQQKPGKAPKLLIYAASSLQNGVPSRFSGSGSGTDFTLTISSLQPEDFATYFCQQADSFPRTFGQGTKLEIK
class 1
V22 (Fab, V domains shown) VH: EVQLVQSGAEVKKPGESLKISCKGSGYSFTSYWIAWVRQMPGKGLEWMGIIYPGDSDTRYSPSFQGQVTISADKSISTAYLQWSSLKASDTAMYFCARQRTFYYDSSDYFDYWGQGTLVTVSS VL: DIQMTQSPSSVSASVGDRVTITCRASQGISSWLAWYQQKPGKAPKLLIYRASSLQNGVPSRFSGSGSGTDFTLTISSLQPEDFATYFCQQADSFPRTFGQGTKLEIK
class 1
V59 (Fab, V domains shown) VH: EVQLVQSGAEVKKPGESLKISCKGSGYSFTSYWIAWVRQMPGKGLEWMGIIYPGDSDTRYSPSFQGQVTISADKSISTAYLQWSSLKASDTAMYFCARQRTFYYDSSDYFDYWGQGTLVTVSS VL: DIQMTQSPSSVSASVGDRVTITCRASQGISSWLAWYQQKPGKAPKLLIYAASSLQNGVPSRFSGSGSGTDFTLTISSLQPEDFATYFCMQADSFPRTFGQGTKLEIK
class 1
V35 (Fab, V domains shown) VH: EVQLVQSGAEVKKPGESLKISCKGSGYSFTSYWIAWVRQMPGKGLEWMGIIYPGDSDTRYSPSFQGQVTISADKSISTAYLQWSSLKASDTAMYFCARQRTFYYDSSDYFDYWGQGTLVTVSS VL: DIQMTQSPSSVSASVGDRVTITCRASQGISSWLAWYQQKPGKAPKLLIYAASSLQNGVPSRFSGSGSGTDFTLTISSLQPEDFATYFCQQAYSFPRTFGQGTKLEIK
class 1

Is it true that binding signal fold over 6E7 parental reported for V21 (Fab, V domains shown) VH: EVQLVQSGAEVKKPGESLKISCKGSGYSFTSYWIAWVRQMPGKGLEWMGIIYPGDSDTRYSPSFQGQVTISADKSISTAYLQWSSLKASDTAMYFCARQRTFYYDSSDFFDYWGQGTLVTVSS VL: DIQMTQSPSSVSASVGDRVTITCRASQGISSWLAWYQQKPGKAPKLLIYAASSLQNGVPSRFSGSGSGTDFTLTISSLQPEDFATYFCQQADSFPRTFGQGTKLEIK is less than 0.4 fold?
class 0

Is it true that binding signal fold over 6E7 parental reported for V32 (Fab, V domains shown) VH: EVQLVQSGAEVKKPGESLKISCKGSGYSFTSYWIAWVRQMPGKGLEWMGIIYPGDSDTRYSNSFQGQVTISADKSISTAYLQWSSLKASDTAMYFCARQRTFYYDSSDYFDYWGQGTLVTVSS VL: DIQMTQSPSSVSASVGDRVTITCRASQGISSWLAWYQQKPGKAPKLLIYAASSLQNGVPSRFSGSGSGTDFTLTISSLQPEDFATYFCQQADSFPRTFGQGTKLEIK is less than 0.4 fold?
class 0

Is it true that binding signal fold over 6E7 parental reported for V6 (Fab, V domains shown) VH: EVQLVQSGAEVKKPGESLKISCKGSGYSFTSMWIAWVRQMPGKGLEWMGIIYPGDSDTRYSPSFQGQVTISADKSISTAYLQWSSLKASDTAMYFCARQRTFYYDSSDYFDYWGQGTLVTVSS VL: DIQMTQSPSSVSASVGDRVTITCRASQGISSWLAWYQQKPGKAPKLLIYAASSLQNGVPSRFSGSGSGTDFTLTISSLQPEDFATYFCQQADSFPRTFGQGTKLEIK is less than 0.4 fold?
class 1

Is it true that binding signal fold over 6E7 parental reported for V19 (Fab, V domains shown) VH: EVQLVQSGAEVKKPGESLKISCKGSGYSFTSSWIAWVRQMPGKGLEWMGIIYPGDSDTRYSPSFQGQVTISADKSISTAYLQWSSLKASDTAMYFCARQRTFYYDSSDYFDYWGQGTLVTVSS VL: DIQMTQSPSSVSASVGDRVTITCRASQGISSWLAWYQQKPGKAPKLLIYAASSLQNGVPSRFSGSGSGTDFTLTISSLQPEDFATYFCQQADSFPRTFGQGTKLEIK is less than 0.4 fold?
class 0
